Target: T1, PUF4 RNA-binding domain (Saccharomyces cerevisiae, UniProt P25339 537-888)
T1 sequence: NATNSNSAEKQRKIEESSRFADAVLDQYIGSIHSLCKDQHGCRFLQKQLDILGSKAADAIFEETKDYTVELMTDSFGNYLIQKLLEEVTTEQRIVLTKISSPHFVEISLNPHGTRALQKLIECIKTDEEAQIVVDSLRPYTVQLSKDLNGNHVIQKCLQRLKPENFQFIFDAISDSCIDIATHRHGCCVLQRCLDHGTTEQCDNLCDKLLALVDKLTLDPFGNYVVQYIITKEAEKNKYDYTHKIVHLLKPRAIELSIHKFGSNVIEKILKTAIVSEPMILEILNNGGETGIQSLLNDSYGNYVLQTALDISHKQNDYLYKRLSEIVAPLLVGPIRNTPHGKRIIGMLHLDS
Experiment: Mg; RNA-MaP; 20 mM Na-HEPES pH 7.4, 30 mM KOAc, 0.75 mM MgCl2, 0.1% Tween-20, 5% glycerol, 0.1 mg/mL BSA, 2 mM DTT; 25 C; 0.0125-409.6 nM protein
Settings: tags: N-His6-TEV cleaved; C-SNAP kept, Cy3B-labelled; label: tethered on chip by stalled RNA polymerase
PROPERTY NAME: pKd
Expect pKd as a plain number equal to -log10 of the molar concentration.

Some binders with recorded pKd:
>>> value_measured("Ie_S2_P5E.1_K5.1_C5.1_H5.1_A5.1_F5.1_[+8CTCTC]_T5.1 (ssRNA) RNA: UUUGAUUAAUAUGAUAUCGUUCUUUCUUGUAUUAUCUCUCUAUUCUUUCUCGAUAUCAUAUUAAUCUUU")
7.88
>>> value_measured("Ic_S4_P4E.1_K4.1_C4.1_H4.1_A4.1_[T5C]_[T7C]_F4.1_[T8A]_[A9G]_T4.1 (ssRNA) RNA: UUUGACAACUGAUCGUUCUUUCUUGUACACAGUUCUUUCUCGAUCAGUUGUCUUU")
6.57

The reported value for UCUCUUUGUAUACACUCUCUU (ssRNA) [Ic_S1_P4E.1_K4.1_C4.1_H4.1_A4.1_[T7C]_F4.1_[T8A]_[A9C]_T4.1] in terms of pKd is 6.93

Record Id_iii_S2_P4E.5_K4.1_C4.3_H4.1_A4.1_F4.1_T4.2_[T11C] (ssRNA) RNA: UUUGAUUAAUAUGAUAUCGUUCUUUCUUCUUGUAUAUUAGCUUCUUUCUCGAUAUCAUAUUAAUCUUU , field pKd: 9.40
